Consider the following binders and their measured neutralization IC50 readings.
- measurement target: HIV-1 strain Du172.17 envelope (gp120) (HIV-1)
- method summary: cell-based or functional assay

// worked examples, neutralization IC50 included
{"binder": "12A12 IgG (antibody, V domains shown) VH: SQHLVQSGTQVKKPGASVRISCQASGYSFTDYVLHWWRQAPGQGLEWMGWIKPVYGARNYARRFQGRINFDRDIYREIAFMDLSGLRSDDTALYFCARDGSGDDTSWHLDPWGQGTLVIVSA VL: DIQMTQSPSSLSASVGDRVTITCQAGQGIGSSLQWYQQKPGKAPKLLVHGASNLHRGVPSRFSGSGFHTTFSLTISGLQRDDFATYFCAVLEFFGPGTKVEIKR", "value type": "neutralization IC50", "endpoint result": "0.2 µg/mL"}
{"binder": "3BNC55 IgG (antibody, V domains shown) VH: QVQLVQSGTAVKRPGASVRVSCQASGYTFTDYFIYWWRQAPGQGLEWLGWINPLTSQPSYPSRFQGRLTLTRDTFDEMLYMDLRGLRSDDTGIYFCARRHSDYCDFDIWGSGTQIIVSS VL: DIQMTQSPSSLSASVGDKVTITCQTSAGYLNWYQQRRGRAPKLLMYDGSRLVTGVPSRFSGRRWGTQYNLTIGSLQPEDIATYYCQVYEFFGPGTRLDLKS", "value type": "neutralization IC50", "endpoint result": "2 µg/mL"}
{"binder": "3BNC60 IgG (antibody, V domains shown) VH: QVHLSQSGAAVTKPGASVRVSCEASGYKISDHFIHWWRQAPGQGLQWVGWINPKTGQPNNPRQFQGRVSLTRQASWDFDTYSFYMDLKAVRSDDTAIYFCARQRSDFWDFDVWGSGTQVTVSS VL: DIQMTQSPSSLSARVGDTVTITCQANGYLNWYQQRRGKAPKLLIYDGSKLERGVPARFSGRRWGQEYNLTINNLQPEDVATYFCQVYEFIVPGTRLDLKRTVA", "value type": "neutralization IC50", "endpoint result": "0.05 µg/mL"}

Now for a further binder.
Measured neutralization IC50, 3BNC117 IgG (antibody, V domains shown) VH: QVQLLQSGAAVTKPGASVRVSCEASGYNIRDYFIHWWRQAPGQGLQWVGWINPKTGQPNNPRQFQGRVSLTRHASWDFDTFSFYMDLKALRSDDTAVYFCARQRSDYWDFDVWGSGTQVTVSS VL: DIQMTQSPSSLSASVGDTVTITCQANGYLNWYQQRRGKAPKLLIYDGSKLERGVPSRFSGRRWGQEYNLTINNLQPEDIATYFCQVYEFVVPGTRLDLKRTVA : 0.04 µg/mL
